test system: MV-4-11 cell; assay: Cell proliferation assay (Cell Titer-Glo); type: cell-based; details: inhibition of MV-4-11 cell proliferation; Cell Titer-Glo on day 4
pIC50: −log10 of the molar value.
Readout: pIC50

>  <Molecule>
[2H]C1([2H])CN(C(=O)c2ncc(N3CCC4(CC3)Cc3ccc(OC)cc3C4N)nc2N)Cc2sc(N)nc21 (centres unmarked) [Compound 122]

>  <Obs value>
7.60

$$$$
>  <Molecule>
Nc1nc2c(s1)CN(C(=O)c1ncc(N3CCC4(CC3)Cc3cc(F)ccc3C4N)nc1N)CC2(F)F (centres unmarked) [Compound 129]

>  <Obs value>
8.05

$$$$
